- Assay Details: Oral bioavailability in CD1 mouse at 15 mg/kg
- Format: ADME, organism-based
- Conditions: in vivo
Property: bioavailability (%)
Numbers only, in %.

Answered cases to consult:
Molecular String | Observed
CN1CCN(c2ccccc2C(=O)/C=C/c2cccc(/C=C/C(=O)NO)n2)CC1 | 2.9
CN1CCN(c2ccccc2C(=O)/C=C/c2ccc(/C=C/C(=O)NO)nc2)CC1 | 6.3
CN1CCN(Cc2ccc(C(=O)/C=C/c3ccc(/C=C/C(=O)NO)nc3)cc2)CC1 | 5.5

Quick request: bioavailability for each listed item, please.
1. CN1CCN(Cc2cccc(C(=O)/C=C/c3ccc(/C=C/C(=O)NO)nc3)c2)CC1
2. O=C(CCCCCCC(=O)Nc1ccccc1)NO
3. O=C(/C=C/c1cccc(S(=O)(=O)Nc2ccccc2)c1)NO
4. CN1CCN(c2cccc(C(=O)/C=C/c3cccc(/C=C/C(=O)NO)n3)c2)CC1

## Output
[3.9, 12.1, 6.66, 2]

----------
- Assay Details: in vitro
- Conditions: human, liver microsomes
Property: half-life
Your answer should be a number followed by the unit of measure.

Consider "O=C(CCCCCCC(=O)Nc1ccccc1)NO" . Its measured half-life is 1 h

----------
- Assay Details: Clearance in CD1 mouse at 5 mg/kg, iv
- Conditions: in vivo
Criterion: clearance meeting or surpassing 100 mL/min/kg. Met: Yes. Not met: No.

Some solved cases for reference:
Molecular String | Category
O=C(/C=C/c1cccc(S(=O)(=O)Nc2ccccc2)c1)NO | Yes
CN1CCN(c2ccccc2C(=O)/C=C/c2ccc(/C=C/C(=O)NO)cc2)CC1 | Yes
Cc1[nH]c2ccccc2c1CCNCc1ccc(/C=C/C(=O)NO)cc1 | Yes

## Input Check if clearance >= 100 mL/min/kg (inclusive). Item: "CN1CCN(Cc2ccccc2C(=O)/C=C/c2ccc(/C=C/C(=O)NO)nc2)CC1"
## Output No

----------
- Assay Details: AUC (0 to infinity) in CD1 mouse at 5 mg/kg, iv
- Assay type: ADME, organism-based
- Set-up: time infinity, dose 5 mg/kg, route intravenous
- Conditions: plasma
Property: AUC(0-inf) (ng·h/mL)
Numbers only, in ng·h/mL.

Answered cases to consult:
Molecule | AUC(0-inf) / ng·h/mL
CN1CCN(c2ccccc2C(=O)/C=C/c2cccc(/C=C/C(=O)NO)n2)CC1 | 1900
CN1CCN(Cc2ccc(C(=O)/C=C/c3ccc(/C=C/C(=O)NO)nc3)cc2)CC1 | 1050

Quick request: AUC(0-inf) for each listed item, please.
1. CN1CCN(Cc2ccccc2C(=O)/C=C/c2ccc(/C=C/C(=O)NO)nc2)CC1
2. Cc1[nH]c2ccccc2c1CCNCc1ccc(/C=C/C(=O)NO)cc1 [PANOBINOSTAT]
3. CN1CCN(c2ccccc2C(=O)/C=C/c2ccc(/C=C/C(=O)NO)nc2)CC1

## Output
1: 1490; 2: 273; 3: 1400

----------
- Assay Details: Metabolic stability in human hepatic microsomes at 1 uM after 30 mins at 37 degC
- Type: ADME
- Conditions: liver microsomes, read-out: Stability
Reported remaining at 0.5 h, 1 µM maps to class as: low = under 40%, intermediate = from 40% up to 50%, high = 50% and over

Some solved cases for reference:
Molecular String | Category
CN1CCN(Cc2ccccc2C(=O)/C=C/c2ccc(/C=C/C(=O)NO)cc2)CC1 | high
O=C(/C=C/c1cccc(/C=C/C(=O)c2ccccc2)c1)NO | low
O=C(/C=C/c1ccc(/C=C/C(=O)c2ccccc2)cc1)NO | low

## Input For the record "CN1CCN(c2ccc(C(=O)/C=C/c3cccc(/C=C/C(=O)NO)n3)cc2)CC1" , report the class its remaining at 0.5 h, 1 µM corresponds to.
## Output low

## Input For the record "CN1CCN(c2ccccc2C(=O)/C=C/c2ccc(/C=C/C(=O)NO)cc2)CC1" , report the class its remaining at 0.5 h, 1 µM corresponds to.
## Output low

## Input For the record "CN1CCN(Cc2ccc(C(=O)/C=C/c3ccc(/C=C/C(=O)NO)nc3)cc2)CC1" , report the class its remaining at 0.5 h, 1 µM corresponds to.
## Output intermediate

## Input For the record "CN1CCN(Cc2ccc(C(=O)/C=C/c3cccc(/C=C/C(=O)NO)c3)cc2)CC1" , report the class its remaining at 0.5 h, 1 µM corresponds to.
## Output intermediate

## Input For the record "O=C(/C=C/c1cc(/C=C/C(=O)c2ccccc2)ccn1)NO" , report the class its remaining at 0.5 h, 1 µM corresponds to.
## Output low

----------
- Assay Details: Clearance in CD1 mouse at 5 mg/kg, iv
- Conditions: in vivo
Property: clearance (mL/min/kg)
Give bare numbers, in mL/min/kg.

Answered cases to consult:
Molecular String | clearance, mL/min/kg
CN1CCN(c2cccc(C(=O)/C=C/c3cccc(/C=C/C(=O)NO)n3)c2)CC1 | 55.3
CN1CCN(c2ccccc2C(=O)/C=C/c2ccc(/C=C/C(=O)NO)nc2)CC1 | 59.7
CN1CCN(Cc2ccc(C(=O)/C=C/c3cccc(/C=C/C(=O)NO)n3)cc2)CC1 | 29.2
CN1CCN(Cc2cccc(C(=O)/C=C/c3ccc(/C=C/C(=O)NO)nc3)c2)CC1 | 113
CN1CCN(Cc2ccc(C(=O)/C=C/c3ccc(/C=C/C(=O)NO)nc3)cc2)CC1 | 79.2

Quick request: clearance for each listed item, please.
1. O=C(CCCCCCC(=O)Nc1ccccc1)NO
2. CN1CCN(c2ccccc2C(=O)/C=C/c2cccc(/C=C/C(=O)NO)n2)CC1

## Output
1. 127
2. 44

----------
- System: Mus musculus
- Assay Details: Volume of distribution at steady state in CD1 mouse at 5 mg/kg, iv
- Conditions: in vivo
Exercise: state measured Vdss for each of the molecules provided.
One number for each entry, in L/kg.

Answered cases to consult:
Molecular String | Target Entity | Vdss (L/kg)
CN1CCN(Cc2cccc(C(=O)/C=C/c3ccc(/C=C/C(=O)NO)nc3)c2)CC1 | Mus musculus | 28.4
CN1CCN(c2cccc(C(=O)/C=C/c3cccc(/C=C/C(=O)NO)n3)c2)CC1 | Mus musculus | 18.3
O=C(CCCCCCC(=O)Nc1ccccc1)NO | Mus musculus | 1.2
CN1CCN(c2ccccc2C(=O)/C=C/c2cccc(/C=C/C(=O)NO)n2)CC1 | Mus musculus | 13.9

Quick request: Vdss for each listed item, please.
1. CN1CCN(c2ccccc2C(=O)/C=C/c2ccc(/C=C/C(=O)NO)nc2)CC1
2. CN1CCN(Cc2ccccc2C(=O)/C=C/c2cccc(/C=C/C(=O)NO)c2)CC1
3. CN1CCN(Cc2ccc(C(=O)/C=C/c3cccc(/C=C/C(=O)NO)n3)cc2)CC1

## Output
2.1
20.1
16.07

----------
- Test system: Mus musculus
- Assay Details: Volume of distribution at steady state in CD1 mouse at 5 mg/kg, iv
- Conditions: in vivo
Criterion: Vdss meeting or surpassing 10 L/kg. Met: label 1. Not met: label 0.

Molecular String | Category
Cc1[nH]c2ccccc2c1CCNCc1ccc(/C=C/C(=O)NO)cc1 | label 1
O=C(/C=C/c1cccc(S(=O)(=O)Nc2ccccc2)c1)NO | label 0
CN1CCN(c2ccccc2C(=O)/C=C/c2ccc(/C=C/C(=O)NO)cc2)CC1 | label 0
CN1CCN(Cc2ccccc2C(=O)/C=C/c2ccc(/C=C/C(=O)NO)nc2)CC1 | label 1

## Input Check if Vdss >= 10 L/kg (inclusive). Item: "CN1CCN(Cc2ccc(C(=O)/C=C/c3ccc(/C=C/C(=O)NO)nc3)cc2)CC1"
## Output label 1

----------
- Assay Details: Metabolic stability in human hepatic microsomes at 1 uM after 30 mins at 37 degC
- Format: ADME
- Conditions: liver microsomes, read-out: Stability
Just a reminder that ties go to n: only remaining at 0.5 h, 1 µM strictly below 40% counts as y.

Some solved cases for reference:
Molecular String | Category
CN1CCN(c2ccc(C(=O)/C=C/c3ccc(/C=C/C(=O)NO)nc3)cc2)CC1 | n
CN1CCN(c2cccc(C(=O)/C=C/c3cccc(/C=C/C(=O)NO)c3)c2)CC1 | n
CN1CCN(c2cccc(C(=O)/C=C/c3ccc(/C=C/C(=O)NO)cc3)c2)CC1 | n

## Input Quick check: remaining at 0.5 h, 1 µM of "O=C(/C=C/c1ccc(/C=C/C(=O)c2ccccc2)cn1)NO" under 40%?
## Output y

## Input Quick check: remaining at 0.5 h, 1 µM of "CN1CCN(c2ccccc2C(=O)/C=C/c2cccc(/C=C/C(=O)NO)c2)CC1" under 40%?
## Output n

## Input Quick check: remaining at 0.5 h, 1 µM of "CN1CCN(Cc2ccccc2C(=O)/C=C/c2cccc(/C=C/C(=O)NO)n2)CC1" under 40%?
## Output n

## Input Quick check: remaining at 0.5 h, 1 µM of "CN1CCN(c2ccccc2C(=O)/C=C/c2cccc(/C=C/C(=O)NO)n2)CC1" under 40%?
## Output n

## Input Quick check: remaining at 0.5 h, 1 µM of "CN1CCN(Cc2cccc(C(=O)/C=C/c3ccc(/C=C/C(=O)NO)cc3)c2)CC1" under 40%?
## Output y

## Input Quick check: remaining at 0.5 h, 1 µM of "CN1CCN(c2ccc(C(=O)/C=C/c3ccc(/C=C/C(=O)NO)cc3)cc2)CC1" under 40%?
## Output y

Values were extracted from ChEMBL document CHEMBL1156799.
